type: in vitro ADME, mouse; conditions: prodrug remaining, 5 μM, 37° C., 60 min
assay.metric: Mouse Plasma Prodrug (%)
Write the answer as a number in %, unit excluded.

Study these solved cases before continuing.
COc1ccc([C@@]23CCC(OP(=O)(OC(C)C)OC(C)C)=C[C@@H]2N(C)CC3)cc1OC : 58.4
COc1ccc([C@@]23CCC(OP4(=O)OCC(C)(C)CO4)=C[C@@H]2N(C)CC3)cc1OC : 94.1
COc1ccc([C@@]23CCC(OC(=O)N(C)C)=C[C@@H]2N(C)CC3)cc1OC : 94.9

Would you kindly look at the next entry?
Write down Mouse Plasma Prodrug (%) measured for item "COc1ccc([C@@]23CCC(OC(=O)OC(C)(C)C)=C[C@@H]2N(C)CC3)cc1OC"
5.4

====

Assay type: in vitro ADME, mouse
Details: prodrug remaining, 5 μM, 37° C., 240 min
Procedure: Each test was carried out in duplicate for each time point; 0 min, 15 min, 30 min, 60 min, 120, 240 min. […]
assay.metric: Mouse Plasma Prodrug (%)
Write the answer as a number in %, unit excluded.

Study these solved cases before continuing.
CCN(C)C(=O)OC1=C[C@@H]2N(C)CC[C@]2(c2ccc(OC)c(OC)c2)CC1 [Compound 326] : 98.5
COc1ccc([C@@]23CCC(OP(=O)(O)O)=C[C@@H]2N(C)CC3)cc1OC [Compound 359] : 59.1
COc1ccc([C@@]23CCC(OP(=O)(OC(C)C)OC(C)C)=C[C@@H]2N(C)CC3)cc1OC [Compound 321] : 31.7
COc1ccc([C@@]23CCC(OP(=O)(Oc4ccccc4)Oc4ccccc4)=C[C@@H]2N(C)CC3)cc1OC [Compound 320] : 11.7
COc1ccc([C@@]23CCC(OC(=O)N(C)C)=C[C@@H]2N(C)CC3)cc1OC [Compound 324] : 88.9

Write down Mouse Plasma Prodrug (%) measured for item COc1ccc([C@@]23CCC(OC(=O)OC(C)(C)C)=C[C@@H]2N(C)CC3)cc1OC [Compound 358]
0.0

Write down Mouse Plasma Prodrug (%) measured for item COc1ccc([C@@]23CCC(OP4(=O)OCC(C)(C)CO4)=C[C@@H]2N(C)CC3)cc1OC [Compound 323]
50.3

====

assay type: in vitro ADME, human; conditions: prodrug remaining, 5 μM, 37° C., 60 min
assay.metric: Human Plasma Prodrug (%)
Write the answer as a number in %, unit excluded.

Study these solved cases before continuing.
COc1ccc([C@@]23CCC(OP(=O)(Oc4ccccc4)Oc4ccccc4)=C[C@@H]2N(C)CC3)cc1OC [Compound 320] : 95.7
COc1ccc([C@@]23CCC(OC(=O)OC(C)(C)C)=C[C@@H]2N(C)CC3)cc1OC [Compound 358] : 35.5
CCN(C)C(=O)OC1=C[C@@H]2N(C)CC[C@]2(c2ccc(OC)c(OC)c2)CC1 [Compound 326] : 98.4

Write down Human Plasma Prodrug (%) measured for item COc1ccc([C@@]23CCC(OP4(=O)OCC(C)(C)CO4)=C[C@@H]2N(C)CC3)cc1OC [Compound 323]
38.1

Write down Human Plasma Prodrug (%) measured for item COc1ccc([C@@]23CCC(OP(=O)(O)O)=C[C@@H]2N(C)CC3)cc1OC [Compound 359]
50.4

====

Reported Human Plasma Prodrug (%) values are given for each entry in this list.
type: in vitro ADME, human; conditions: prodrug remaining, 5 μM, 37° C., 30 min
Write the answer as a number in %, unit excluded.

Write down Human Plasma Prodrug (%) measured for item COc1ccc([C@@]23CCC(OC(=O)OC(C)(C)C)=C[C@@H]2N(C)CC3)cc1OC [Compound 358]
58.1

Write down Human Plasma Prodrug (%) measured for item COc1ccc([C@@]23CCC(OC(=O)N4CCN(C)CC4)=C[C@@H]2N(C)CC3)cc1OC [Compound 327]
98.9

Write down Human Plasma Prodrug (%) measured for item COc1ccc([C@@]23CCC(OP(=O)(O)O)=C[C@@H]2N(C)CC3)cc1OC [Compound 359]
65.1

Write down Human Plasma Prodrug (%) measured for item COc1ccc([C@@]23CCC(OP(=O)(Oc4ccccc4)Oc4ccccc4)=C[C@@H]2N(C)CC3)cc1OC [Compound 320]
98.5

Write down Human Plasma Prodrug (%) measured for item COc1ccc([C@@]23CCC(OC(=O)N(C)C)=C[C@@H]2N(C)CC3)cc1OC [Compound 324]
98.7

Write down Human Plasma Prodrug (%) measured for item CCN(C)C(=O)OC1=C[C@@H]2N(C)CC[C@]2(c2ccc(OC)c(OC)c2)CC1 [Compound 326]
99.9

Write down Human Plasma Prodrug (%) measured for item COc1ccc([C@@]23CCC(OP4(=O)OCC(C)(C)CO4)=C[C@@H]2N(C)CC3)cc1OC [Compound 323]
64.5

====

Reported Human Plasma Prodrug (%) values are given for each entry in this list.
experiment: Plasma Stability Assay (Example A3), human plasma; assay type: in vitro ADME; conditions: prodrug remaining, 10 μM, 37° C., 10 min

Study these solved cases before continuing.
COc1ccc([C@@]23CCC(OP4(=O)OC(C)CC(C)O4)=C[C@@H]2N(C)CC3)cc1OC (stereo partly drawn) : >99%
COc1ccc([C@@]23CCC(OP(=O)(OC(C)C)OC(C)C)=C[C@@H]2N(C)CC3)cc1OC : >99%

Write down Human Plasma Prodrug (%) measured for item "COc1ccc([C@@]23CCC(OP(=O)(O)OCOC(=O)C(C)(C)C)=C[C@@H]2N(C)CC3)cc1OC"
>99%

====

assay type: in vitro ADME, human; conditions: prodrug remaining, 5 μM, 37° C., 120 min
Reported Human Plasma Prodrug (%) values are given for each entry in this list.

Study these solved cases before continuing.
COc1ccc([C@@]23CCC(OC(=O)N(C)C)=C[C@@H]2N(C)CC3)cc1OC [Compound 324] : >99%
COc1ccc([C@@]23CCC(OC(=O)N4CCN(C)CC4)=C[C@@H]2N(C)CC3)cc1OC [Compound 327] : >99%
COc1ccc([C@@]23CCC(OP(=O)(OC(C)C)OC(C)C)=C[C@@H]2N(C)CC3)cc1OC [Compound 321] : >99%

Would you kindly look at the next entry?
Write down Human Plasma Prodrug (%) measured for item CCN(C)C(=O)OC1=C[C@@H]2N(C)CC[C@]2(c2ccc(OC)c(OC)c2)CC1 [Compound 326]
>99%

====

Reported Human Plasma Prodrug (%) values are given for each entry in this list.
format: in vitro ADME, human; conditions: prodrug remaining, 5 μM, 37° C., 60 min

Study these solved cases before continuing.
COc1ccc([C@@]23CCC(OC(=O)N(C)C)=C[C@@H]2N(C)CC3)cc1OC [Compound 324] : >99%
COc1ccc([C@@]23CCC(OC(=O)N4CCN(C)CC4)=C[C@@H]2N(C)CC3)cc1OC [Compound 327] : >99%

Would you kindly look at the next entry?
Write down Human Plasma Prodrug (%) measured for item COc1ccc([C@@]23CCC(OP(=O)(OC(C)C)OC(C)C)=C[C@@H]2N(C)CC3)cc1OC [Compound 321]
>99%
